Molecular target: T1, cyno TF ECD-His (cTF-his) (monkey (cyno))
T1 construct: also called bio-cTF-his; monkey TF-His protein
T1 chain: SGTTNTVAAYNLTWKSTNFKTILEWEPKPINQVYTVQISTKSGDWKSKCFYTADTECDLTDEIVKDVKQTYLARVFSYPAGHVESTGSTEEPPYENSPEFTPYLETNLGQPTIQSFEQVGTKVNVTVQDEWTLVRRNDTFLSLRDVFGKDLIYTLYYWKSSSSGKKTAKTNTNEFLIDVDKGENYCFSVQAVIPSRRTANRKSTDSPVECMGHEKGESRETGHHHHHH
Test: SPR Biacore T200, antibody on Protein A chip, TF-His as analyte, 1:1 model
Quantity Name: koff (s⁻¹)

INSERT INTO measurements (binder, quantity_name, endpoint_result) VALUES
  ('hu67-14 (antibody, human IgG1, kappa, V domains shown) VH: EVTLKQSGPVLVKPTQTLTLTCTVSGFSLTNYGVNWIRQPPRKGLEWLGVIWSRGNTDYNAAFISRLTISKDNSKSQVVLKMTNMDPVDTATYYCARKDAVVATDALDYWGQGTTVTVSS VL: DIQMTQSHKFLSASVGDRVTITCKASQDVSTAVAWYQQKPGKSPKLLIYSTSYRYTGVPSRFSGSGSGTDFTFTISSLQPEDIATYYCQQHYSTPYTFGGGTKVEIKR', 'koff', 0.000399);

This collection of values is drawn from patent EP4703388A1.
